Some compounds, each annotated with its measured Ki.
target: Human PKal (plasma kallikrein) (Homo sapiens); construct: purchased Molecular Innovations HPKA; assay: Pre-equilibrium titration curve inhibition assay of plasma kallikrein (fluorogenic substrate H-Pro-Phe-Arg-AMC, global fit with Eq. 7); format: biochemical; conditions: Ki = koff/kon from pre-equilibrium curves, 25 °C, pH 7.5, PKal 1 nM (0.25 nM for 4b), mean ± SD of at least 3 independent measurements, read-out: Ki
Starred links: 1 amine or outer side, 2 acyl side, 3 side chain; linkers in the order of their positions; H or OH if unused. Positions of bridges follow the written chain, without caps; N, C: chain ends. Non-standard residues stand in square brackets, D forms with d. Residues, ends and D or L forms follow the SMILES beside them. TBMB = c1c(C[*:1])cc(C[*:3])cc1C[*:2]; NMeR = CN[C@@H](CCCNC(=N)N)C(=O)O; hArg = N=C(N)NCCCC[C@H](N)C(=O)O; Aze = O=C(O)[C@@H]1CCN1
parameter measured: Ki (nM)

INSERT INTO assay_data (compound, output_unit, experimental_result) VALUES
  ('CC(=O)N[C@H]1CSCc2cc3cc(c2)CSC[C@H](NC(=O)[C@H](CCCNC(=N)N)NC(=O)[C@H](Cc2ccc(O)cc2)NC(=O)[C@@H]2CCCN2C(=O)[C@H](Cc2ccccc2)NC(=O)[C@H](CO)NC1=O)C(=O)N[C@@H](CC(C)C)C(=O)N[C@@H](Cc1c[nH]cn1)C(=O)N[C@@H](CCC(N)=O)C(=O)N[C@@H](CC(=O)O)C(=O)N[C@@H](CC(C)C)C(=O)N[C@H](C(N)=O)CSC3 [Peptide 5a] (Ac-CSFPYRCLHQDLC-NH2; linker 1-7-13 via TBMB)', 'nM', 0.36),
  ('CC(=O)N[C@H]1CSCc2cc3cc(c2)CSC[C@H](NC(=O)[C@H](CCCNC(=N)N)NC(=O)[C@H](Cc2ccc(O)cc2)NC(=O)[C@@H]2CCCN2C(=O)[C@H](Cc2ccccc2)NC(=O)[C@H](CO)NC1=O)C(=O)N[C@@H](CC(C)C)C(=O)N[C@@H](Cc1c[nH]cn1)C(=O)N[C@@H](CCC(N)=O)C(=O)N[C@@H](CC(=O)O)C(=O)N[C@@H](CC(C)C)C(=O)N[C@H](C(N)=O)CSC3 [Peptide 2c] (Ac-CSFPYRCLHQDLC-NH2; linker 1-7-13 via TBMB)', 'nM', 0.34),
  ('CC(=O)N[C@H]1CSCc2cc3cc(c2)CSC[C@H](NC(=O)[C@H](CCCCNC(=N)N)NC(=O)[C@H](Cc2ccc(O)cc2)NC(=O)[C@@H]2CCN2C(=O)[C@H](Cc2ccccc2)NC(=O)[C@H](CO)NC1=O)C(=O)N[C@@H](C)CN[C@@H](Cc1c[nH]cn1)C(=O)N[C@@H](CCC(N)=O)C(=O)N[C@@H](CC(=O)O)C(=O)N[C@@H](CC(C)C)C(=O)N[C@H](C(N)=O)CSC3 [Peptide 2d]', 'nM', 0.22),
  ('CC(=O)N[C@H]1CSCc2cc3cc(c2)CSC[C@H](NC(=O)[C@H](CCCCNC(=N)N)NC(=O)[C@H](Cc2ccc(O)cc2)NC(=O)[C@@H]2CCN2C(=O)[C@H](Cc2ccccc2)NC(=O)[C@H](CO)NC1=O)C(=O)N[C@@H](CC(C)C)C(=O)N[C@@H](Cc1c[nH]cn1)C(=O)N[C@@H](CCC(N)=O)C(=O)N[C@@H](CC(=O)O)C(=O)N[C@@H](CC(C)C)C(=O)N[C@H](C(N)=O)CSC3 [Peptide 5c] (Ac-CSF[Aze]Y[hArg]CLHQDLC-NH2; linker 1-7-13 via TBMB)', 'nM', 0.061),
  ('CC(=O)N[C@H]1CSCc2cc3cc(c2)CSC[C@H](NC(=O)[C@H](CCCNC(=N)N)N(C)C(=O)[C@H](Cc2ccc(O)cc2)NC(=O)[C@@H]2CCN2C(=O)[C@H](Cc2ccccc2)NC(=O)[C@H](CO)NC1=O)C(=O)N[C@@H](CC(C)C)C(=O)N[C@@H](Cc1c[nH]cn1)C(=O)N[C@@H](CCC(N)=O)C(=O)N[C@@H](CC(=O)O)C(=O)N[C@@H](CC(C)C)C(=O)N[C@H](C(N)=O)CSC3 [Peptide 5d] (Ac-CSF[Aze]Y[NMeR]CLHQDLC-NH2; linker 1-7-13 via TBMB)', 'nM', 0.55);

====

target: Human PKal (plasma kallikrein) (Homo sapiens, UniProt P03952); construct: purchased Molecular Innovations HPKA; experiment: Pre-equilibrium titration curve inhibition assay of plasma kallikrein (fluorogenic substrate H-Pro-Phe-Arg-AMC, global fit with Eq. 7); type: biochemical; settings: Ki = koff/kon from pre-equilibrium curves, 25 °C, pH 7.5, PKal 1 nM (0.25 nM for 4b), mean ± SD of at least 3 independent measurements, read-out: Ki
Sequence (P03952 391-638 limits assumed): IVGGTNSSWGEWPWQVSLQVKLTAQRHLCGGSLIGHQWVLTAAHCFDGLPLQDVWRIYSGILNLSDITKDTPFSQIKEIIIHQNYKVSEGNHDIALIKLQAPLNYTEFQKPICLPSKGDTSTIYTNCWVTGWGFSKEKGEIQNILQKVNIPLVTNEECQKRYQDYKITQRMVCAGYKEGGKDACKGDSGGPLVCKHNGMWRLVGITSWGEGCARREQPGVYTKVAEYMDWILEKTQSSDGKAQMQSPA
Sequence (P03952 20-390 partner limits assumed): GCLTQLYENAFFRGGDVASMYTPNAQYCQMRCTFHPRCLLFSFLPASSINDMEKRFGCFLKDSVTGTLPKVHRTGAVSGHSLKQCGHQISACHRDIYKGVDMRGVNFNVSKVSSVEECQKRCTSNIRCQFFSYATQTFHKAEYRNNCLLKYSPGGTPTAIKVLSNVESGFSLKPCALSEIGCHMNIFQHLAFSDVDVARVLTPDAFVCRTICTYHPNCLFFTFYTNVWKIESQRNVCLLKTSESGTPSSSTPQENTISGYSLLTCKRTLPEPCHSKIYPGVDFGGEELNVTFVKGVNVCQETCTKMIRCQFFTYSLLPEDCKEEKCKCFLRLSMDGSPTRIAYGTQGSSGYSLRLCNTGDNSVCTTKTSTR
pKi: −log10 of the molar value. Starred links: 1 amine or outer side, 2 acyl side, 3 side chain; linkers in the order of their positions; H or OH if unused. Positions of bridges follow the written chain, without caps; N, C: chain ends. Non-standard residues stand in square brackets, D forms with d. Residues, ends and D or L forms follow the SMILES beside them. TBMB = c1c(C[*:1])cc(C[*:3])cc1C[*:2]; hArg = N=C(N)NCCCC[C@H](N)C(=O)O
parameter measured: pKi

INSERT INTO results (compound, tested_system, parameter_measured, experimental_result) VALUES
  ('CC(=O)N[C@H]1CSCc2cc3cc(c2)CSC[C@H](NC(=O)[C@H](CCCNC(=N)N)NC(=O)[C@H](C)NC(=O)[C@@H]2CCCN2C(=O)[C@H](Cc2c[nH]c4ccccc24)NC(=O)[C@H](CO)NC1=O)C(=O)N[C@@H](CC(C)C)C(=O)N[C@@H](Cc1c[nH]cn1)C(=O)N[C@@H](CCC(N)=O)C(=O)N[C@@H](CC(=O)O)C(=O)N[C@@H](CC(C)C)C(=O)N[C@H](C(N)=O)CSC3 [Peptide 2b] (Ac-CSWPARCLHQDLC-NH2; linker 1-7-13 via TBMB)', 'Human PKal (plasma kallikrein) (Homo sapiens, UniProt P03952)', 'pKi', 10.00),
  ('CC(=O)N[C@H]1CSCc2cc3cc(c2)CSC[C@H](NC(=O)[C@H](CCCCNC(=N)N)NC(=O)[C@H](Cc2ccc(O)cc2)NC(=O)[C@@H]2CCCN2C(=O)[C@H](Cc2ccccc2)NC(=O)[C@H](CO)NC1=O)C(=O)N[C@@H](CC(C)C)C(=O)N[C@@H](Cc1c[nH]cn1)C(=O)N[C@@H](CCC(N)=O)C(=O)N[C@@H](CC(=O)O)C(=O)N[C@@H](CC(C)C)C(=O)N[C@H](C(N)=O)CSC3 [Peptide 5b] (Ac-CSFPY[hArg]CLHQDLC-NH2; linker 1-7-13 via TBMB)', 'Human PKal (plasma kallikrein) (Homo sapiens, UniProt P03952)', 'pKi', 9.28);
